Tested on: SF-295
Test: NCI tumour cell line growth inhibition, 48 h
The source made the active and inactive calls. Cut-off read from the data, not from the text of the source: active = GI50 up to about 1.1 µM and inactive = higher. Where a SMILES comes first, the peptide text is derived from it. The star is where a group is joined. Boc = CC(C)(C)OC(=O)*

compound	GI50
CCOC(=O)C(CC(C)C)NC(=O)C(Cc1ccccc1)NC(=O)CNC(=O)OC(C)(C)C (stereo not drawn) (Boc-Gly-Phe-Leu-OEt; configuration not given here)	34.8 µM (inactive)
Cc1cc(-c2c(Br)cc(C(=O)O)n2C)on1	> 100 µM (inactive)
CC(C)(C(=O)NN)c1ccccc1	33.7 µM (inactive)
COc1cc(/C=C2\NC(=O)N(/C=C3\C(=O)Oc4ccccc4C3=O)C2=O)ccc1O	> 100 µM (inactive)
COC(=O)c1cn(CCCC(=O)O)nn1	> 100 µM (inactive)
C=CCN(CCN(CC=C)S(=O)(=O)c1ccc(C)cc1)S(=O)(=O)c1ccc(C)cc1	> 100 µM (inactive)
C/C(=N\Nc1ccc([N+](=O)[O-])cc1)C(=O)N(C)Nc1ccccc1	34.5 µM (inactive)
NCCNc1ncnc2ccc(Cl)cc12	> 100 µM (inactive)
COC(=O)/C(C#N)=C/c1cc(C(C)(C)C)c(O)c(C(C)(C)C)c1	1.74 µM (inactive)

Source: ChEMBL document CHEMBL1201862
